For each record, write down the corresponding selective drug sensitivity score.
- Tested on: P30-OHKUBO
- assay notes: selective drug sensitivity score (sDSS, relative to normal bone marrow) (sDSS (score)); higher = more potent and effective on the cell line relative to normal bone marrow cells;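 further: ALL cell lines in 384-well plates, five doses spanning 10,000-fold, each plate scaled between vehicle and 100 µmol/L benzalkonium chloride controls, sDSS an adapted area-under-curve metric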
- condition summary: 72 h
Keep it simple and answer with nothing but the number.

Recorded selective drug sensitivity score (compound CNC(=O)c1ccc(N2C(=S)N(c3ccc(C#N)c(C(F)(F)F)c3)C(=O)C2(C)C)cc1F [Enzalutamide] (top concentration 10000 nM) ): -0.52

Recorded selective drug sensitivity score (compound Nc1nc(NC2CC2)cc(-c2cccc(Cl)c2Cl)n1 [TH588] (top concentration 25000 nM) ): 4.02

Recorded selective drug sensitivity score (compound O=c1[nH]c(=O)n([C@H]2C[C@H](O)[C@@H](CO)O2)cc1F [Floxuridine] (top concentration 10000 nM) ): 37

Recorded selective drug sensitivity score (compound NC(=O)NO [Hydroxyurea] (top concentration 1000000 nM) ): 7.66

Recorded selective drug sensitivity score (compound Cn1c(=O)n(-c2ccc(C(C)(C)C#N)cc2)c2c3cc(-c4cnc5ccccc5c4)ccc3ncc21 [Dactolisib] (top concentration 1000 nM) ): 14.8

Recorded selective drug sensitivity score (compound Cc1ccc(NC(=O)c2ccc(CN3CC[C@H](N(C)C)C3)c(C(F)(F)F)c2)cc1Nc1nccc(-c2cncnc2)n1 [Bafetinib] (top concentration 1000 nM) ): 0

Recorded selective drug sensitivity score (compound COCC1(CO)C(=O)C2CCN1CC2 (stereo not given) [APR-246] (top concentration 10000 nM) ): -0.76

Recorded selective drug sensitivity score (compound Cc1[nH]c2ccccc2c1CCNCc1ccc(/C=C/C(=O)NO)cc1 [Panobinostat] (top concentration 1000 nM) ): 6.64

Recorded selective drug sensitivity score (compound OC[C@H]1O[C@@H](n2cnc3c2N=CNC[C@H]3O)C[C@@H]1O [Pentostatin] (top concentration 10000 nM) ): -0.44

Recorded selective drug sensitivity score (compound COc1ccc2[nH]cc(/C=C3\C(=O)Nc4ccc(NC(=O)CCN5CCCCC5)cc43)c2c1 (top concentration 50000 nM) ): 0.38

Recorded selective drug sensitivity score (compound CC[C@]1(O)C[C@H]2CN(CCc3c([nH]c4ccccc34)[C@@](C(=O)OC)(c3cc4c(cc3OC)N(C=O)[C@H]3[C@@](O)(C(=O)OC)[C@H](OC(C)=O)[C@]5(CC)C=CCN6CC[C@]43[C@@H]65)C2)C1 [Vincristine] (top concentration 1000 nM) ): 17.4

Recorded selective drug sensitivity score (compound CC(C)N(C[C@H]1O[C@@H](n2cnc3c(N)ncnc32)[C@H](O)[C@@H]1O)[C@H]1C[C@@H](CCc2nc3cc(C(C)(C)C)ccc3[nH]2)C1 [Pinometostat] (top concentration 1000 nM) ): 0

Recorded selective drug sensitivity score (compound CNS(=O)(=O)Nc1nccc(Cc2c(C)c3ccc(Oc4ncccn4)cc3oc2=O)c1F (top concentration 1000 nM) ): -1.18

Recorded selective drug sensitivity score (compound CN1CCN(CCOc2cc(OC3CCOCC3)c3c(Nc4c(Cl)ccc5c4OCO5)ncnc3c2)CC1 [Saracatinib] (top concentration 10000 nM) ): 5.58

Recorded selective drug sensitivity score (compound O=C(O)c1ccc(-c2c[nH]c3ncc(-c4ccccc4)cc23)cc1C1CCCC1 (top concentration 10000 nM) ): 3.36

Recorded selective drug sensitivity score (compound CS(=O)(=O)c1ccc(-c2cnc(N)c(C(=O)Nc3ccccc3)n2)cc1 [VE-821] (top concentration 10000 nM) ): -0.16

Recorded selective drug sensitivity score (compound Cc1ccc(NC(=O)c2ccc(CN3CCN(C)CC3)cc2)cc1Nc1nccc(-c2cccnc2)n1 [Imatinib] (top concentration 10000 nM) ): 0.06

Recorded selective drug sensitivity score (compound CNc1nc(Nc2cn(C(C)(C)C#N)nc2C)ncc1C(F)(F)F [GNE-0877] (top concentration 1000 nM) ): 0

Recorded selective drug sensitivity score (compound Nc1nc2[nH]cnc2c(=S)[nH]1 [Thioguanine] (top concentration 10000 nM) ): 11.6

Recorded selective drug sensitivity score (compound Cc1cc([C@@H](C)Nc2ccccc2C(=O)O)c2nc(N3CCOCC3)cc(=O)n2c1 [AZD-6482] (top concentration 2500 nM) ): 9.12

Recorded selective drug sensitivity score (compound C=CCn1c(=O)c2cnc(Nc3ccc(N4CCN(C)CC4)cc3)nc2n1-c1cccc(C(C)(C)O)n1 [AZD1775] (top concentration 10000 nM) ): 13.7

Recorded selective drug sensitivity score (compound CC(=O)[C@]1(O)Cc2c(O)c3c(c(O)c2[C@@H](O[C@H]2C[C@H](N)[C@H](O)[C@H](C)O2)C1)C(=O)c1ccccc1C3=O [Idarubicin] (top concentration 1000 nM) ): 3.94

Recorded selective drug sensitivity score (compound CC[C@@](C)(Nc1ccnc(-c2c[nH]c3ncccc23)n1)C(=O)NCC(F)(F)F [Decernotinib] (top concentration 10000 nM) ): -3.94

Recorded selective drug sensitivity score (compound COc1cc(OC)cc(N(CCNC(C)C)c2ccc3ncc(-c4cnn(C)c4)nc3c2)c1 [Erdafitinib] (top concentration 1000 nM) ): 1.74

Recorded selective drug sensitivity score (compound CCOc1cc2ncc(C#N)c(Nc3ccc(OCc4ccccn4)c(Cl)c3)c2cc1NC(=O)/C=C/CN(C)C [Neratinib] (top concentration 1000 nM) ): 2.78

----------
For each record, write down the corresponding selective drug sensitivity score.
- Test system: TANOUE
- assay notes: selective drug sensitivity score (sDSS, relative to normal bone marrow) (sDSS (score)); higher = more potent and effective on the cell line relative to normal bone marrow cells
- condition summary: 72 h

Recorded selective drug sensitivity score (molecule C[C@@H](C(=O)O)c1ccc(-c2ccccc2)c(F)c1 [Tarenflurbil] (top concentration 10000 nM) ): 4.74

Recorded selective drug sensitivity score (molecule Nc1nc2[nH]cc(CCc3ccc(C(=O)N[C@@H](CCC(=O)O)C(=O)O)cc3)c2c(=O)[nH]1 [Pemetrexed] (top concentration 10000 nM) ): -0.72

Recorded selective drug sensitivity score (molecule O=c1[nH]c(=O)n([C@H]2C[C@H](O)[C@@H](CO)O2)cc1F [Floxuridine] (top concentration 10000 nM) ): 2.92

Recorded selective drug sensitivity score (molecule Nc1nc2[nH]cnc2c(=S)[nH]1 [Thioguanine] (top concentration 10000 nM) ): 5.54

----------
For each record, write down the corresponding selective drug sensitivity score.
- Test system: KASUMI-9
- assay notes: selective drug sensitivity score (sDSS, relative to normal bone marrow) (sDSS (score)); higher = more potent and effective on the cell line relative to normal bone marrow cells
- condition summary: 72 h
Keep it simple and answer with nothing but the number.

Recorded selective drug sensitivity score (molecule CCNCCS(=O)(=O)NC[C@@]1(c2ccccc2)SC(NC(=O)C(C)(C)C)=NN1C(=O)C(C)(C)C [Litronesib] (top concentration 1000 nM) ): 18.4

Recorded selective drug sensitivity score (molecule NC(=O)c1cccc2cn(-c3ccc(C4CCCNC4)cc3)nc12 (stereo not given) [Niraparib] (top concentration 10000 nM) ): 5.78

Recorded selective drug sensitivity score (molecule CC[C@H](C)C(=O)O[C@H]1C[C@@H](C)C=C2C=C[C@H](C)[C@H](CC[C@@H]3C[C@@H](O)CC(=O)O3)[C@H]21 [Lovastatin] (top concentration 10000 nM) ): 2.7

Recorded selective drug sensitivity score (molecule CNS(=O)(=O)Nc1nccc(Cc2c(C)c3ccc(Oc4ncccn4)cc3oc2=O)c1F (top concentration 1000 nM) ): 0.02

Recorded selective drug sensitivity score (molecule CN(C)c1cc2c(cc1Sc1nc3c(N)nccc3n1CCNCC(C)(C)C)OCO2 [CUDC-305] (top concentration 10000 nM) ): 0.22

----------
- Tested on: MHH-CALL-2
- assay notes: selective drug sensitivity score (sDSS, relative to normal bone marrow) (sDSS (score)); higher = more potent and effective on the cell line relative to normal bone marrow cells
- condition summary: 72 h
For each record, write down the corresponding selective drug sensitivity score.

Recorded selective drug sensitivity score (molecule FC(F)c1nc2ccccc2n1-c1nc(N2CCOCC2)nc(N2CCOCC2)n1 [ZSTK474] (top concentration 10000 nM) ): 11.4

Recorded selective drug sensitivity score (molecule CC(C)(C)NC(=O)[C@H]1CC[C@H]2[C@@H]3CC[C@H]4NC(=O)C=C[C@]4(C)[C@H]3CC[C@]12C [Finasteride] (top concentration 10000 nM) ): 0.98

Recorded selective drug sensitivity score (molecule CO[C@@H](C(=O)N1Cc2[nH]nc(NC(=O)c3ccc(N4CCN(C)CC4)cc3)c2C1)c1ccccc1 [Danusertib] (top concentration 10000 nM) ): 11.7

Recorded selective drug sensitivity score (molecule CN(C)C(=N)NC(=N)N [Metformin] (top concentration 100000 nM) ): 0.58

Recorded selective drug sensitivity score (molecule CCN(CC)CCOc1ccc(/C(=C(/Cl)c2ccccc2)c2ccccc2)cc1 [Clomifene] (top concentration 10000 nM) ): 4.12

Recorded selective drug sensitivity score (molecule C[C@@H]1CN(Cc2ccc(F)cc2)[C@@H](C)CN1C(=O)c1cc2c(C(=O)C(=O)N(C)C)cn(C)c2cc1Cl [Talmapimod] (top concentration 10000 nM) ): 0

Recorded selective drug sensitivity score (molecule CC(=O)Nc1ccc(C(=O)Nc2ccccc2N)cc1 [Tacedinaline] (top concentration 1000 nM) ): 7.68
